Kd reference
- MEASURED_TARGET: anti-CD20 scFv-14
- TEST_PROTOCOL: Octet (BLI) equilibrium binding, hybridoma supernatant; antigen format not stated
Supply the numeric figure in nM, leaving out any unit text.

Look over these answered cases.
INSERT INTO assay_data (binder, parameter_measured, units_label, quantitative_readout) VALUES
  ('23E1 (antibody, V domains shown) VH: EVQLQQSGPVLVKPGPSVKISCKASGFTFTDYYMHWVKQSHGKSLEWIGLVYPYNGGTSYNQKFKGKATLTVDTSSSTAYMELNSLTSEDSAVYYCARRGQRVWYFDVWGTGTTVTVSS VL: DIQMTQSPSSLSASLGGKVTITCKASQDINKYIAWYQHKPGKGPRLLIHYTSTLQPGIPSRFSGSGSGRDYSFSISNLEPEDIATYYCLQYDNLYTFGGGTKLEIK', 'Kd', 'nM', 3.28),
  ('29F8 (antibody, V domains shown) VH: QIQLVQSGPELKKPGETVKISCKASGYTFTTYGMSWVKQAPGKGLKWMGWINTYSGVPTYADDFKGRFAFSLETSASTAYLQINNLKNEDSATYFCARYYYGSNYDYWGQGTTLTVSS VL: DIQMTQSPASLSASVGETVTITCRASENIYSYLAWYQQKQGKSPQLLVNNAKTLAEGVPSRFSGSGSGTQFSLKINSLQPEDFGSYYCQHHYGSPPTFGSGTKLEIK', 'Kd', 'nM', 0.00131),
  ('23C11 (antibody, V domains shown) VH: QVQLQQPGAELVRPGSSVKLSCKASGYTFTSYWMHWVKQRPIQGLEWIGNIDPSDSETHYNQKFKDKATLTVDKSSSTAYMQLSSLTSEDSAVYYCARAGRVFYYAMDYWGQGTSVTVSS VL: DIQMTQTTSSLSASLGDRVTISCRASQDISNYLNWYQQKPDGTVKLLIYYTSRLHSGVPSRFSGSGSGTDYSLTISNLEQEDIATYFCQQGNTLYTFGGGTKLEIK', 'Kd', 'nM', 3.72),
  ('24C7 (antibody, V domains shown) VH: QVQLQQSGPELVKPGASVKISCKASGYSFTSYYIHWVKQRPGQGLEWIGWIYPGSGNTKYNEKFKGKATLTADTSSSTAYMQLSSLTSEDSAVYYCARCVLLDYFDYWGQGTTLTVSS VL: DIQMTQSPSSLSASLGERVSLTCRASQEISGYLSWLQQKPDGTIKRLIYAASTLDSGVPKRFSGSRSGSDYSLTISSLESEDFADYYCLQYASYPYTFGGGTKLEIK', 'Kd', 'nM', 3.9),
  ('24C12 (antibody, V domains shown) VH: QVQLQQSGAELMKPGASVKLSCKATGHTFTGYWIEWVKQRPGHGLEWIGEILPGSGSTNYNEKFKGKATFTADTSSNTAYMQLSSLTTEDSAIYYCAREGFAYWGQGTLVTVSA VL: DIVMTQSHKFMSTSVGDRVSITCKASQDVGIAVAWYQQKPGQSPKLLIYWASTRHTGVPDRFTGSGSGTDFTLTISNVQSEDLADYFCQQYSSYPYTFGGGTKLEIK', 'Kd', 'nM', 0.00138);

Ask: Given 25F10 (antibody, V domains shown) VH: QVHLQQSGPELVKPGASVKISCKASGYSFTSYYIHWVKQRPGQGLEWIGWIYPRSGNTNYNEKFKDKATLAADTSSSAAYMQLSSLTSEDSAVYYCGRSDFYYGSDYWGQGTTLTVSS VL: DIQMTQSPSSLSASLGERVSLTCRASQEISGYLGWLQQKPDGTIKRLIYAASTLDSGVPRRFSGSRSGSDYSLTFSSLESEDFADYYCLQYASYPWTFGGGTKLEIK , state its recorded Kd.
Result: 0.00408
